# Tested system: hERG (KCNH2) (Homo sapiens)
# Sequence (Q12809 whole entry): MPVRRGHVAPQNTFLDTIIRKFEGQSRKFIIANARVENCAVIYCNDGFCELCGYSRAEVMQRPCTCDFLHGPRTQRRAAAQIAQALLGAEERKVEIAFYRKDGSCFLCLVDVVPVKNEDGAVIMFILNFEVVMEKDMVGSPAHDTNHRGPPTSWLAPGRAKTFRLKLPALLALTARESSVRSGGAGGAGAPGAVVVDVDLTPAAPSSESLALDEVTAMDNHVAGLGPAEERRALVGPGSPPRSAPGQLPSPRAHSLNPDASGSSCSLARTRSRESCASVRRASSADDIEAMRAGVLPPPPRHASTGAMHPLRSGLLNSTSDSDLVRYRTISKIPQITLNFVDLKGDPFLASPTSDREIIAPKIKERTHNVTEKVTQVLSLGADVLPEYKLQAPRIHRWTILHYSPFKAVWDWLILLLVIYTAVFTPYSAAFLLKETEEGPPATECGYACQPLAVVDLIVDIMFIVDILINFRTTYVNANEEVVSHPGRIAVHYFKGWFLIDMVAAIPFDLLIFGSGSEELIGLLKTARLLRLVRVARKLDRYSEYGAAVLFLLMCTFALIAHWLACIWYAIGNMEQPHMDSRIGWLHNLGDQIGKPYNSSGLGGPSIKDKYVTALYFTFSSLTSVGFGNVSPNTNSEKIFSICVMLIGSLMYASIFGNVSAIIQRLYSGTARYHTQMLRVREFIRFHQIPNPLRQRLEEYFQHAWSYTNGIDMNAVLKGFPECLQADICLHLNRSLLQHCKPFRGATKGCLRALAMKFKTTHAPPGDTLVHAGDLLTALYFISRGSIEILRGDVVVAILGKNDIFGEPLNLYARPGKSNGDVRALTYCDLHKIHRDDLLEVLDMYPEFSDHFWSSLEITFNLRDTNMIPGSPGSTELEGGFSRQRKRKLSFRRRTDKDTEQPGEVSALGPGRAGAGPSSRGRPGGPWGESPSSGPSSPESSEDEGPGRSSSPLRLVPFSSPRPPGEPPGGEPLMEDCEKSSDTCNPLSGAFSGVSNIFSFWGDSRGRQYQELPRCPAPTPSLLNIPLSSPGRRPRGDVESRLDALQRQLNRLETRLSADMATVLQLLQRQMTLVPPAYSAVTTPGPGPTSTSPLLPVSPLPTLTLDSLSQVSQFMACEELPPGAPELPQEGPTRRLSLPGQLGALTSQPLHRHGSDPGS
# Test summary: Residual current of human ERG expressed in CHO-K1 cells at 100 uM by patch clamp electrophysiological assay relative to control
# Details: CHO-K1 cells expressing human ERG
Below, each entry is listed with its recorded residual current at 100 µM.
Write the number in % without appending the unit.

CN1Cc2ccccc2[C@@H]1C[C@H](O)c1ccc(Cl)cc1 : 1.6

// moving on: another record for residual current at 100 µM
I'd like to know its residual current at 100 µM. The compound in question is Cc1ccc([C@@H](O)C[C@H]2c3ccccc3CN2C)cc1
2.6

====

# Test summary: Displacement of [3H]MK-801 from high affinity site of NMDA-NR2B receptor in porcine hippocampus synaptosomal fractions after 15 mins
# Type: tissue-based, Sus scrofa
We begin with a simple list: items and their reported pIC50.
A value of pIC50 is the negative decimal logarithm of a concentration given in moles per litre.

Examples from the recorded data:
CN1Cc2ccccc2[C@@H]1C[C@H](O)c1ccc(Cl)cc1 : 6.30
COc1cc2c(cc1OC)[C@H](C[C@H](O)c1ccc(Cl)cc1)N(C)CC2 : 6.99

# query: pIC50 of entry Cc1ccc([C@@H](O)C[C@H]2c3ccccc3CN2C)cc1
6.68

====

Parameter IC50: see the listing below.
# Test summary: Displacement of [3H]MK-801 from NMDA-NR2B receptor in porcine hippocampus synaptosomal fractions under nonequilibrium conditions after 15 mins
# Type: tissue-based, Sus scrofa
# number only, unit µM dropped from output

Solved entries:
CN1Cc2ccccc2[C@H]1C[C@H](O)c1ccc([N+](=O)[O-])cc1 : 43
CN1Cc2ccccc2[C@@H]1C[C@H](O)c1ccc([N+](=O)[O-])cc1 : 43
Cc1ccc([C@H](O)C[C@@H]2c3ccccc3CN2C)cc1 : 31
CN1Cc2ccccc2[C@@H]1C[C@@H](O)c1ccc([N+](=O)[O-])cc1 : 39
Cc1ccc([C@@H](O)C[C@@H]2c3ccccc3CN2C)cc1 : 23
Cc1ccc([C@H](O)C[C@H]2c3ccccc3CN2C)cc1 : 28

IC50 lookup needed for CN1Cc2ccccc2[C@H]1C[C@H](O)c1ccc(Cl)cc1 , thanks.
47

Consider the compound shown here: CN1Cc2ccccc2[C@@H]1C[C@@H](O)c1ccc(Cl)cc1 What is its recorded IC50?
26

====

# Test summary: Displacement of [3H]MK-801 from low affinity site of NMDA receptor in porcine hippocampus synaptosomal fractions after 15 mins
# Format: tissue-based, Sus scrofa
Measured IC50 by item
Please provide the amount together with its unit, number first.

# example entries with known answers
Cc1ccc([C@@H](O)C[C@H]2c3ccccc3CN2C)cc1 : 20 µM
CN1Cc2ccccc2[C@@H]1C[C@H](O)c1ccc(Cl)cc1 : 67 µM

Read the next record carefully.
Could you share which IC50 value was measured for COc1cc2c(cc1OC)[C@H](C[C@H](O)c1ccc(Cl)cc1)N(C)CC2 ?
23.5 µM

====

# Test summary: Displacement of [3H]-ifenprodil from ifenprodil binding site of NMDA receptor in porcine hippocampus synaptosomal fractions after 2 hrs
# Format: tissue-based, Sus scrofa
Below: a set of entries, each annotated with reported IC50.
Please respond with the number in µM and leave the unit unwritten.

Cc1ccc([C@@H](O)C[C@H]2c3ccccc3CN2C)cc1 : 0.43
Cc1ccc([C@H](O)C[C@@H]2c3ccccc3CN2C)cc1 : 35
CN1Cc2ccccc2[C@H]1C[C@@H](O)c1ccc(Cl)cc1 : 11
CN1Cc2ccccc2[C@@H]1C[C@H](O)c1ccc(Cl)cc1 : 0.27

Requested read-out: IC50. Entry: CN1Cc2ccccc2[C@H]1C[C@H](O)c1ccc([N+](=O)[O-])cc1
42

Returns the measured IC50 for the input compound. Input: CN1Cc2ccccc2[C@H]1C[C@@H](O)c1ccc([N+](=O)[O-])cc1
52

Suppose we examine the compound Cc1ccc([C@@H](O)C[C@@H]2c3ccccc3CN2C)cc1 ; what IC50 value has been reported?
9.3

Consider the compound CN1Cc2ccccc2[C@H]1C[C@H](O)c1ccc(Cl)cc1 and give its measured IC50.
21

Item under review: CN1Cc2ccccc2[C@@H]1C[C@H](O)c1ccc([N+](=O)[O-])cc1 . Reported IC50?
7.5

====

# Test summary: Displacement of [3H]-ifenprodil from ifenprodil binding site of NMDA receptor low affinity site in porcine hippocampus synaptosomal fractions after 2 hrs
# Assay type: tissue-based, Sus scrofa
Endpoint label: pIC50
Remember the convention: pIC50 equals -log10 of concentration in molar.

Sample COc1cc2c(cc1OC)[C@H](C[C@H](O)c1ccc(Cl)cc1)N(C)CC2 — what was its pIC50?
4.65
